Data credit: paper PMC5620609

# protocolDescription: Pharmacokinetic study, IV in mice
# Format: in vivo
# conditionInfo: mouse, plasma, iv, 10 mg/kg, mouse, IV, plasma, non-compartmental, read-out: t1/2 (converted)
# Description: Blood aliquots (300–400 µL) were collected via cardiac puncture from anesthetized mice in anticoagulant coated tubes, then kept on ice and centrifuged at 2500× g for 15 min at 4 °C. The plasma was harvested and kept frozen at −80 °C. Plasma samples were processed using acetonitrile precipitation and analyzed by HPLC-MS/MS. A plasma calibration curve was generated and a reportable linear range determined, along with the lower limit of quantitation.
metricName: half-life (min)
The figure you give is taken to be in min; do not add the unit.

Given Nc1ncn([C@@H]2O[C@H](CO)[C@@H](O)C2(F)F)c(=O)n1 , respond with its half-life.
20.1

====

# protocolDescription: Pharmacokinetic study, IV in mice
# Format: in vivo
# conditionInfo: mouse; IV; 10 mg/kg; plasma
metricName: C0
Report as: number unit

Using known records, supply C0 for Nc1ncn([C@@H]2O[C@H](CO)[C@@H](O)C2(F)F)c(=O)n1
36900 ng/mL

====

# protocolDescription: Pharmacokinetic study, IV in mice
# Assay type: in vivo
# conditionInfo: mouse; IV; 10 mg/kg; plasma
metricName: MRT (min)
Report the value in min with no unit label.

Identify measured MRT corresponding to Nc1ncn([C@@H]2O[C@H](CO)[C@@H](O)C2(F)F)c(=O)n1
17.5

====

# protocolDescription: Pharmacokinetic study, IV in mice
# Type: in vivo
# conditionInfo: mouse, plasma, iv, 10 mg/kg, mice; intravenous injection; read-out: half-life
metricName: half-life (min)
// return numeric value only (unit: min, not printed)

Please give measured half-life of the following entry: Nc1ncn([C@@H]2O[C@H](CO)[C@@H](O)C2(F)F)c(=O)n1 [NUC013, 5-aza-2′,2′-difluroro deoxycytidine]
20.1

====

# protocolDescription: in vivo
# conditionInfo: mouse, iv, 5 mg/kg
metricName: MTD at 3 weeks

Return value of MTD at 3 weeks for input Nc1ncn([C@H]2C[C@H](O)[C@@H](CO)O2)c(=O)n1 [decitabine, 5-aza-2′-deoxycytidine] , no commentary.
< 5 mg/kg

====

# protocolDescription: Pharmacokinetic study, IV in mice
# Format: in vivo
# conditionInfo: mouse; IV; 10 mg/kg; plasma
# Protocol: Blood aliquots (300–400 µL) were collected via cardiac puncture from anesthetized mice in anticoagulant coated tubes, then kept on ice and centrifuged at 2500× g for 15 min at 4 °C. The plasma was harvested and kept frozen at −80 °C. Plasma samples were processed using acetonitrile precipitation and analyzed by HPLC-MS/MS. A plasma calibration curve was generated and a reportable linear range determined, along with the lower limit of quantitation.
metricName: AUC(0-t) (ng·h/mL)
Response body: numeric value in ng·h/mL, unit text excluded.

Name the recorded AUC(0-t) of the compound listed here: Nc1ncn([C@@H]2O[C@H](CO)[C@@H](O)C2(F)F)c(=O)n1
11100

====

# protocolDescription: Pharmacokinetic study, IV in mice
# Format: in vivo
# conditionInfo: mouse; IV; 10 mg/kg; plasma; read-out: Vss
metricName: Vd (L/kg)
Reply with just the number (in L/kg).

Using the record for Nc1ncn([C@@H]2O[C@H](CO)[C@@H](O)C2(F)F)c(=O)n1 [NUC013, 5-aza-2′,2′-difluroro deoxycytidine] , state its measured Vd.
0.26
